B1: KCNA4 (parent)
chain: YQLGEEALLKFREDEGFVREEEDR

Variants of: B1
Assay: protein stability index of a GFP-peptide fusion (GPS, HEK-293T) (PSI 1-6); higher = more stable;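 also: lentivirally expressed fusions sorted by FACS into six bins by GFP to DsRed ratio, PSI derived from sequencing read proportions per bin multiplied by bin number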
Details: c terminus: a fixed tail appended
observable: protein stability index
Just the number, please, no unit after it.

Please review the entries below; each comes with its answer.
{"variant.string": "A7Q", "recorded.value": 4.1}
{"variant.string": "E20R", "recorded.value": 4.1}
{"variant.string": "R19K", "recorded.value": 4.05}
{"variant.string": "A7I", "recorded.value": 3.99}
{"variant.string": "E22W", "recorded.value": 4.01}
{"variant.string": "D23Q", "recorded.value": 4.04}

So what's the measured protein stability index for this one? L9W 4.01
